Numbers sourced from paper doi:10.1101/382655.

# measured target: Integration host factor (IHF) (UniProt P0A6X7;P0A6Y1 2-99;1-94)
# Sequence (P0A6X7 2-99, chain 1 of 2): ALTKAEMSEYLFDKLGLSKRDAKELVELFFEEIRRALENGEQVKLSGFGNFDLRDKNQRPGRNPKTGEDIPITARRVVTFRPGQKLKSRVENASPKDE
# Sequence (P0A6Y1 whole entry, chain 2 of 2): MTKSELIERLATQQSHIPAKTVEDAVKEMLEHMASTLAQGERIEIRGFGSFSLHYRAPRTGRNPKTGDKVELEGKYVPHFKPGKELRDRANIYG
# protocol details: equilibrium fluorescence titration

binder: H' (design I) (dsDNA) DNA 1: TGGCCAAAAAAGCATTGCTTATCAATTTGTTGCACC DNA 2: TGGTGCAACAAATTGATAAGCAATGCTTTTTTGGCC
Kd / nM: 1900

binder: H1 (design II) (dsDNA, 3' phosphate link on bottom strand (to dye)) DNA 1: GGCCATGCAGTCACTATGAATCAACTACTTAGACC DNA 2: GGTCTAAGTAGTTGATTCATAGTGACTGCATGGCC
Kd / nM: 1990

binder: H' (design II) (dsDNA, 3' phosphate link on bottom strand (to dye)) DNA 1: GGCCAAAAAAGCATTGCTTATCAATTTGTTGCACC DNA 2: GGTGCAACAAATTGATAAGCAATGCTTTTTTGGCC
Kd / nM: 1500

binder: H1_CTloop (design I) (dsDNA) DNA 1: TGGCCATGCAGTCACTATGAATCAACTACTTAGACC DNA 2: TGGTCTAAGTAGTTGATTCATTCTGACTGCATGGCC
Kd / nM: 16
